Overview of reported pIC50 across a group of compounds:
Assay Target: recombinant human GST-Syk (Homo sapiens (Human), UniProt P43405)
Assay: Homogeneous Time-Resolved Fluorescence (HTRF) assay for the recombinant human Syk enzyme
Format: biochemical
Assay Setup: recombinant human GST-Syk 5 pM, ATP 25 μM, read-out: rhSyk IC50
Description: Syk inhibition may be determined using the following assay protocol: Homogeneous Time-Resolved Fluorescence (HTRF) Assay for the Recombinant Human Syk Enzyme: A recombinant GST-hSyk fusion protein was used to measure potency of compounds to inhibit human Syk activity. […] To initiate the reaction the biotinylated substrate peptide (250 nM final concentration) that contains the phosphorylation site for Syk was added with magnesium (5 mM final concentration) and ATP (25 μM final concentration). […]
Would you please state pIC50, meaning minus log10 of the concentration in mol/L, as a bare number?

Some solved entries appear below for comparison.
INSERT INTO measurements (compound, value_observed) VALUES
  ('Cc1cc(Nc2cc(C(F)(F)F)ccn2)nc(-c2ccc(NC3CCN(C(=O)c4ccccc4N4CCN(C)CC4)CC3)nc2)c1 [Example 4-20]', 8.40),
  ('Cc1cc(Nc2cc(C(F)(F)F)ccn2)nc(-c2ccc(NC3CCN(C(=O)Cc4cccnc4)CC3)nc2)c1 [Example 4-77]', 9.00),
  ('Cc1cc(Nc2cc(C(F)F)ccn2)nc(-c2ccc(C(C)(O)[C@H]3CC[C@H](C(=O)OCC(C)(C)C)CC3)nc2)c1 (single isomer, unassigned) [Example 19-8]', 6.82);

Looking for the measured pIC50 of Cc1cc(Nc2cc(C(F)(F)F)ccn2)nc(-c2ccc(NC3CCN(C(=O)c4cccc(O)c4)CC3)nc2)c1 [Example 4-101] , can you help?
8.10

Here is the next compound: Cc1cc(Nc2cc(C(F)(F)F)ccn2)nc(-c2ccc(NC3CCN(C(=O)Cc4ccccn4)CC3)nc2)c1 [Example 4-68]
8.70

Here is the next compound: CC(=O)OC(C)OC(=O)[C@H]1CC[C@H](C(C)(O)c2ccc(-c3cc(C)cc(Nc4cc(C(F)F)ccn4)n3)cn2)CC1 (single isomer, unassigned) [Example 21-3]
8.82

====

Assay Target: recombinant human GST-Syk (Homo sapiens (Human), UniProt P43405)
Assay: Homogeneous Time-Resolved Fluorescence (HTRF) assay for the recombinant human Syk enzyme
Assay Setup: recombinant human GST-Syk 5 pM, ATP 25 μM, read-out: rhSyk IC50
Returns: string. Value is Criterion met if measured IC50 is below 7 nM, and Criterion not met if it is greater than or equal to it.

As a guide, the following entries are already answered.
INSERT INTO results (molecule, group_label) VALUES
  ('Cc1cc(Nc2cc(C(F)(F)F)ccn2)nc(-c2ccc(NC3CCN(C(=O)c4cccc(C(F)(F)F)c4)CC3)nc2)c1', 'Criterion not met'),
  ('Cc1cc(Nc2cc(C(F)F)ccn2)nc(-c2ccc(C(C)(O)[C@H]3CC[C@H](C(=O)OCc4oc(=O)oc4C)CC3)nc2)c1 (single isomer, unassigned)', 'Criterion met'),
  ('Cc1cc(Nc2cc(C(F)(F)F)ccn2)nc(-c2ccc(NC3CCN(C(=O)c4ccc5[nH]c(C)c(C)c5c4)CC3)nc2)c1', 'Criterion not met'),
  ('Cc1cc(Nc2cc(C(F)(F)F)ccn2)nc(-c2ccc(NC3CCN(C(=O)c4cccc(N(C)C)c4)CC3)nc2)c1', 'Criterion met'),
  ('Cc1cc(Nc2cc(C(F)(F)F)ccn2)nc(-c2ccc(N3CCCC(C(=O)N4CCCC(C(=O)O)C4)C3)nc2)c1 (stereo not shown) [Example 2-27]', 'Criterion met');

Is the reported IC50 for `Cc1cc(Nc2cc(C(F)(F)F)ccn2)nc(-c2ccc(NC3CCN(C(=O)CCOc4ccccc4)CC3)nc2)c1` strictly below 7 nM?
Criterion not met

Here is the next molecule: Cc1cc(Nc2cc(C(F)(F)F)ccn2)nc(-c2ccc(N3CCCC(NC(=O)OC(C)(C)C)C3)nc2)c1 (stereo not shown)
Criterion not met

Here is the next molecule: `Cc1cc(Nc2cc(C(F)(F)F)ccn2)nc(-c2ccc(NC3CCN(C(=O)Cc4ccc5ccccc5c4)CC3)nc2)c1`
Criterion not met

Here is the next molecule: Cc1cc(Nc2cc(C(F)F)ccn2)nc(-c2ccc(C(C)(O)[C@H]3CC[C@H](C(=O)OCCN(C)C)CC3)nc2)c1 (single isomer, unassigned)
Criterion met

Here is the next molecule: `Cc1cc(Nc2cc(C(F)(F)F)ccn2)nc(-c2ccc(NC3CCN(C(=O)c4cn[nH]c4-c4ccccc4)CC3)nc2)c1`
Criterion not met

Here is the next molecule: COC(=O)C1CCC(C(=O)c2ccc(-c3cc(C)cc(Nc4cc(C(F)(F)F)ccn4)n3)cn2)CC1 (stereo not shown)
Criterion not met

Here is the next molecule: CCOCCOCCOC(=O)[C@H]1CC[C@H](C(C)(O)c2ccc(-c3cc(C)cc(Nc4cc(C(F)F)ccn4)n3)cn2)CC1 (single isomer, unassigned)
Criterion not met

====

Assay Target: recombinant human GST-Syk (Homo sapiens (Human), UniProt P43405)
Assay: Homogeneous Time-Resolved Fluorescence (HTRF) assay for the recombinant human Syk enzyme
Assay Setup: recombinant human GST-Syk 5 pM, ATP 25 μM, read-out: rhSyk IC50
Assay Endpoint: pIC50
Would you please state pIC50, meaning minus log10 of the concentration in mol/L, as a bare number?

Some solved entries appear below for comparison.
INSERT INTO assay_data (molecule, value_observed) VALUES
  ('Cc1cc(Nc2cc(C(F)(F)F)ccn2)nc(-c2ccc(NC3CCC(C(=O)O)CC3)nc2)c1 (stereo not drawn) [Example 2-25]', 8.15),
  ('Cc1cc(Nc2cc(C(F)(F)F)ccn2)nc(-c2ccc(NC3CCN(C(=O)c4ccc5[nH]cc(C)c5c4)CC3)nc2)c1', 8.00);

Looking for the measured pIC50 of Cc1cc(Nc2cc(C(F)F)ccn2)nc(-c2ccc(C(C)(O)[C@H]3CC[C@H](C(=O)OCc4ccccc4)CC3)nc2)c1 (single isomer, unassigned) , can you help?
7.46

Here is the next molecule: Cc1cc(Nc2cc(C(F)(F)F)ccn2)nc(-c2ccc(N3CCC4CCC(C(=O)O)CC4C3)nc2)c1 (stereo not drawn)
8.22

Here is the next molecule: Cc1cc(Nc2cc(C(F)F)ccn2)nc(-c2ccc(C(C)(O)[C@H]3CC[C@H](C(=O)OCOC(=O)OC(C)C)CC3)nc2)c1 (single isomer, unassigned)
7.72

Here is the next molecule: Cc1cc(Nc2cc(C(F)(F)F)ccn2)nc(-c2ccc(C3(O)CCC(C(=O)O)C(C)(C)C3)nc2)c1 (stereo not drawn) [Example 1-23]
7.54

====

Assay Target: recombinant human GST-Syk (Homo sapiens (Human))
Assay: Homogeneous Time-Resolved Fluorescence (HTRF) assay for the recombinant human Syk enzyme
Assay Setup: recombinant human GST-Syk 5 pM, ATP 25 μM, read-out: rhSyk IC50
Description: Syk inhibition may be determined using the following assay protocol: Homogeneous Time-Resolved Fluorescence (HTRF) Assay for the Recombinant Human Syk Enzyme: A recombinant GST-hSyk fusion protein was used to measure potency of compounds to inhibit human Syk activity. […] To initiate the reaction the biotinylated substrate peptide (250 nM final concentration) that contains the phosphorylation site for Syk was added with magnesium (5 mM final concentration) and ATP (25 μM final concentration). […]
Assay Endpoint: pIC50
Would you please state pIC50, meaning minus log10 of the concentration in mol/L, as a bare number?

INSERT INTO results (molecule, assay_target, value_observed) VALUES
  ('Cc1cc(Nc2cc(C(F)(F)F)ccn2)nc(-c2ccc(C[C@H]3CC[C@@H](C(=O)O)CC3)nc2)c1 [Example 10 cis isomer]', 'recombinant human GST-Syk (Homo sapiens (Human))', 9.00),
  ('Cc1cc(Nc2cc(C(F)(F)F)ccn2)nc(-c2ccc(NC3CCN(C(=O)c4cn(Cc5ccccc5)c5ccccc45)CC3)nc2)c1 [Example 4-60]', 'recombinant human GST-Syk (Homo sapiens (Human))', 6.37),
  ('Cc1cc(Nc2cc(C(F)(F)F)ccn2)nc(-c2ccc(NC3CCN(C(=O)c4cccc(S(C)(=O)=O)c4)CC3)nc2)c1 [Example 4-46]', 'recombinant human GST-Syk (Homo sapiens (Human))', 8.40),
  ('Cc1cc(Nc2cc(C(F)(F)F)ccn2)nc(-c2ccc(NC3CCN(C(=O)c4ccc5c(c4)CNC5=O)CC3)nc2)c1 [Example 4-5]', 'recombinant human GST-Syk (Homo sapiens (Human))', 8.70),
  ('CC(=O)OCCOC(=O)[C@H]1CC[C@H](C(C)(O)c2ccc(-c3cc(C)cc(Nc4cc(C(F)F)ccn4)n3)cn2)CC1 (single isomer, unassigned) [Example 21-6]', 'recombinant human GST-Syk (Homo sapiens (Human))', 7.82),
  ('Cc1ccnc(Nc2cc(C)cc(-c3ccnc(F)c3)n2)c1 [Example 1-3]', 'recombinant human GST-Syk (Homo sapiens (Human))', 6.87);

Looking for the measured pIC50 of Cc1cc(Nc2cc(C(F)(F)F)ccn2)nc(-c2ccc(NC3CCN(C(=O)c4cc5cccc(C)c5nc4C)CC3)nc2)c1 [Example 4-21] , can you help?
7.05

Here is the next molecule: CCC(C)OC(=O)[C@H]1CC[C@H](C(C)(O)c2ccc(-c3cc(C)cc(Nc4cc(C(F)F)ccn4)n3)cn2)CC1 (single isomer, unassigned) [Example 19-5]
8.15
